Test system: Candida krusei ATCC 6258 (I)
Assay: MIC determination by in vitro antifungal assay
Assay type: cell-based
Conditions: strain I = C. krusei ATCC 6258
readoutLabel: log10 MIC (log10 of the value in μg/mL^−1)
Note: values are log10 of MIC expressed in μg/mL^−1.

For O=C(NNc1cccc(F)c1)c1ccccn1 , what is its reported log10 MIC? -0.62

For O=C(NNc1cccc(F)c1)c1cnccn1 , what is its reported log10 MIC? -0.31

For O=C(NNc1cccc(F)c1)c1ccc(Br)cn1 , what is its reported log10 MIC? -0.62

For C[C@@H]1[C@H](O)[C@@H](C)/C=C/C=C/C=C/C=C/C=C/C=C/C=C/[C@H](O[C@@H]2O[C@H](C)[C@@H](O)[C@H](N)[C@@H]2O)C[C@@H]2O[C@](O)(C[C@@H](O)C[C@@H](O)[C@H](O)CC[C@@H](O)C[C@@H](O)CC(=O)O[C@H]1C)C[C@H](O)[C@H]2C(=O)O [AmB, amphotericin B, reference compound] , what is its reported log10 MIC? -0.01

For COc1ccc(NNC(=O)c2ccc(F)cn2)cc1 , what is its reported log10 MIC? -0.62

For O=C(NNc1ccc(F)cc1)c1ccc(F)cn1 , what is its reported log10 MIC? -0.31

For O=C(NNc1ccc(Cl)cc1)c1cccc(F)n1 , what is its reported log10 MIC? 0.29

For O=C(NNc1ccc(Cl)cc1)c1nc(F)ccc1F , what is its reported log10 MIC? 0.59

For O=C(NNc1ccc(Cl)cc1)c1cnccn1 , what is its reported log10 MIC? 0.59

For O=C(NNc1cccc(F)c1)c1cccc(F)n1 , what is its reported log10 MIC? -0.62

For O=C(NNc1cccc(F)c1)c1ncc(F)cc1F , what is its reported log10 MIC? -0.62

For O=C(NNc1ccc(Cl)cc1)c1ccccn1 , what is its reported log10 MIC? 0.29

For O=C(NNc1ccc(Cl)cc1)c1ccc(F)cn1 , what is its reported log10 MIC? -0.01

For O=C(NNc1cccc(F)c1)c1cccc(Br)n1 , what is its reported log10 MIC? -0.31

For O=C(NNc1cccc(F)c1)c1nc(F)ccc1F , what is its reported log10 MIC? -0.31

For O=C(NNc1cccc(F)c1)c1ccc(F)cc1F , what is its reported log10 MIC? 0.29

For O=C(NNc1cccc(Cl)c1)c1ccccn1 , what is its reported log10 MIC? -0.31

For O=C(NNc1ccc(Cl)cc1)c1ncc(F)cc1F , what is its reported log10 MIC? 0.29

For O=C(NNc1ccc(Cl)cc1)c1ccc(F)cc1F , what is its reported log10 MIC? 1.19

For COc1cccc(NNC(=O)c2ccccn2)c1 , what is its reported log10 MIC? -0.31

For O=C(NNc1cccc(F)c1)c1ccc(F)cn1 , what is its reported log10 MIC? -0.62

For COc1cccc(NNC(=O)c2ccc(F)cn2)c1 , what is its reported log10 MIC? -0.62
